# assayText: Plasma PK of milled TAK-228 in TAK-228+P and TAK-228 QW arms, LC-MS/MS
# Type: in vivo, human
# conditions: human, plasma, oral, 20 mg

chemicalString	Cmax, ng/mL
CC(C)n1nc(-c2ccc3oc(N)nc3c2)c2c(N)ncnc21	209

====

# assayText: Plasma PK of milled TAK-228 in TAK-228+P and TAK-228 QW arms, LC-MS/MS
# Format: in vivo, human
# conditions: human, plasma, oral, 4 mg

molecule	unitSpec	Cmax
CC(C)n1nc(-c2ccc3oc(N)nc3c2)c2c(N)ncnc21 [TAK-228, Sapanisertib]	ng/mL	28.5
